pIC50 values, listed per item
ASSAY SYSTEM: Human ACC2 (Homo sapiens, UniProt O00763)
Sequence (O00763 whole entry): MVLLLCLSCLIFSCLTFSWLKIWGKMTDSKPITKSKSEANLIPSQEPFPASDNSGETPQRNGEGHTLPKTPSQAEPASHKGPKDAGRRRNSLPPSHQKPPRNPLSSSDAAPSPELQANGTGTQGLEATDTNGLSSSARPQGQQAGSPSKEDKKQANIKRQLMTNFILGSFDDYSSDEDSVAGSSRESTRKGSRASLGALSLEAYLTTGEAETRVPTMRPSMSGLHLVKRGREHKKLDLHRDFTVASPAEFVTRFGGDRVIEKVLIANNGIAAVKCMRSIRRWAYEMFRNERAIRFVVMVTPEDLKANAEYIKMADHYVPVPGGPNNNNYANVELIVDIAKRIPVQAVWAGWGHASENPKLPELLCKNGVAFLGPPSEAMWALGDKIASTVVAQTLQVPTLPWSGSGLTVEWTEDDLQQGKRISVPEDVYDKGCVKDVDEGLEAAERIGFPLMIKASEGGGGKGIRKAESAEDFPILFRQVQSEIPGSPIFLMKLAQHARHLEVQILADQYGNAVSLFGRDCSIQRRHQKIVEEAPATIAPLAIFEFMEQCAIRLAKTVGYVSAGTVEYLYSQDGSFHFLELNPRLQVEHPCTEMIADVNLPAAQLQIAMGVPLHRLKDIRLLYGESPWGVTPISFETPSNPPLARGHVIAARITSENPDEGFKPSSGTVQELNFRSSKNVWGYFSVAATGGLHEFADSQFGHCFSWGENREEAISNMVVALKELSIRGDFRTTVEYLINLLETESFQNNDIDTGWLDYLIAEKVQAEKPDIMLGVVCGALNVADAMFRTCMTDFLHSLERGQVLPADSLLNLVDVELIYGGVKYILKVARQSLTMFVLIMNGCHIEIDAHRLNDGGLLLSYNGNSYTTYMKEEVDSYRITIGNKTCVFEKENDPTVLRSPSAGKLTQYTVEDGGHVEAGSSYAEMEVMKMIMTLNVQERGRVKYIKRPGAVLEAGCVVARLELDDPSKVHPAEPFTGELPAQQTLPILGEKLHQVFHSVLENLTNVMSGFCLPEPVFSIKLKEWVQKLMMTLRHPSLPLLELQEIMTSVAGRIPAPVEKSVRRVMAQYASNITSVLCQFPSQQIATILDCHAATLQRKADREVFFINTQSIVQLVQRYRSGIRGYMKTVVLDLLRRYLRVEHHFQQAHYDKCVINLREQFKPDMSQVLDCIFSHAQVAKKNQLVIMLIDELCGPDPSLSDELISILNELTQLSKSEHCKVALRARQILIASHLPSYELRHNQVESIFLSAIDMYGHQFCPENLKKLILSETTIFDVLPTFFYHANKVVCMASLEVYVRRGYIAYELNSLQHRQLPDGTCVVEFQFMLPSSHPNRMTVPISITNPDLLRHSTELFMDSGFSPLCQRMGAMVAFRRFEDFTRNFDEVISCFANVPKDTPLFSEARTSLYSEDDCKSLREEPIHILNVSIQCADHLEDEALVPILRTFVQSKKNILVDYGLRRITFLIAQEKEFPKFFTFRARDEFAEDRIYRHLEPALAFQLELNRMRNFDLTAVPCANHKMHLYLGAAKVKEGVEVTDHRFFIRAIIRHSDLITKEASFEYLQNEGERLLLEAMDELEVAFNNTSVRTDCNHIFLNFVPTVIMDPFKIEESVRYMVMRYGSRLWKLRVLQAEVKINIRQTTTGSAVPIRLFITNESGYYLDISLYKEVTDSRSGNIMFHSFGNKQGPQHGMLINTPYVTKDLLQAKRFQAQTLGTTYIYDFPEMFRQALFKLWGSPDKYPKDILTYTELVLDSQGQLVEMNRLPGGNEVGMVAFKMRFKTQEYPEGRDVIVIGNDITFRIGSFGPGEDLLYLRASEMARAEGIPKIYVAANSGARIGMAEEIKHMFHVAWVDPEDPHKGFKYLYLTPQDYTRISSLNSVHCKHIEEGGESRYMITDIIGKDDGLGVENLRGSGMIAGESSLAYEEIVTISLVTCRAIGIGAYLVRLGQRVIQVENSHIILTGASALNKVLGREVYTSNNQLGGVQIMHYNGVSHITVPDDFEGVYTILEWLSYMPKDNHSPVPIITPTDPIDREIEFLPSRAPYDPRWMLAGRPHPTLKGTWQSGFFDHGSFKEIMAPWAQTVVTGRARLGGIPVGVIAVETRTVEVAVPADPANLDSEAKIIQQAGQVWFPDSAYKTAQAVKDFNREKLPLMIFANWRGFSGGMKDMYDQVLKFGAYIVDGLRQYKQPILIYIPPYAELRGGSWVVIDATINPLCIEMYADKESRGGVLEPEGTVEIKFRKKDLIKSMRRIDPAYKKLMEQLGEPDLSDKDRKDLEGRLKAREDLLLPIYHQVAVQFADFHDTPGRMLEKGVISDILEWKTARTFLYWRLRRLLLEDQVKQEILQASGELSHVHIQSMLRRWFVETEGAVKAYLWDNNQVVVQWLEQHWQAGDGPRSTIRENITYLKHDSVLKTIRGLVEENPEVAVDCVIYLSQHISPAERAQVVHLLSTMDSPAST
pIC50: −log10 of the molar value.

{"columns": ["MOLECULE", "ASSAY SYSTEM", "pIC50"],
 "data": [
  ["COCCO[C@@H](Cn1c(=O)n([C@@]2(C)CC(=O)N(C)C2)c(=O)c2c(C)c(-n3nccn3)sc21)c1cc(F)ccc1OC", "Human ACC2 (Homo sapiens, UniProt O00763)", "7.00 to 8.00"],
  ["COc1ccccc1[C@H](Cn1c(=O)n([C@H]2CCN(C)C2=O)c(=O)c2c(C)c(-n3nccn3)sc21)OC", "Human ACC2 (Homo sapiens, UniProt O00763)", "7.00 to 8.00"],
  ["COc1ccc(F)cc1[C@H](Cn1c(=O)n([C@H]2CCNC2=O)c(=O)c2c(C)c(-n3nccn3)sc21)OCCO", "Human ACC2 (Homo sapiens, UniProt O00763)", "8.00 to 8.70"],
  ["COc1ccccc1[C@H](Cn1c(=O)n([C@@H]2CCCNC2=O)c(=O)c2c(C)c(-c3ncco3)sc21)OCCO", "Human ACC2 (Homo sapiens, UniProt O00763)", "7.00 to 8.00"],
  ["COc1ccc(F)cc1[C@H](Cn1c(=O)n([C@@H]2CCNC2=O)c(=O)c2c(C)c(-n3nccn3)sc21)OCCC#N", "Human ACC2 (Homo sapiens, UniProt O00763)", "8.00 to 8.70"],
  ["COCCO[C@@H](Cn1c(=O)n([C@]2(C)CCCN(C)C2=O)c(=O)c2c(C)c(-n3nccn3)sc21)c1cc(F)ccc1OC", "Human ACC2 (Homo sapiens, UniProt O00763)", "7.00 to 8.00"]
]}

## Input Provide pIC50, tested on Human ACC2 (Homo sapiens, UniProt O00763), for `COc1ccc(F)cc1[C@H](COc1nc2sc(-n3nccn3)c(C)c2c(=O)n1[C@@H]1CC(=O)N(C)C1)OCCO` .
## Output < 6.00

## Input Provide pIC50, tested on Human ACC2 (Homo sapiens, UniProt O00763), for `COc1ccccc1[C@@H](O)Cn1c(=O)n([C@H]2CCN(C)C2=O)c(=O)c2c(C)c(-n3nccn3)sc21` .
## Output 7.00 to 8.00

## Input Provide pIC50, tested on Human ACC2 (Homo sapiens, UniProt O00763), for COCCO[C@@H](Cn1c(=O)n(C2CCNC2=O)c(=O)c2c(C)c(-n3nccn3)sc21)c1cc(F)ccc1OC (stereo partly shown) .
## Output 8.00 to 8.70

## Input Provide pIC50, tested on Human ACC2 (Homo sapiens, UniProt O00763), for `COCCO[C@@H](Cn1c(=O)n([C@@H]2CCN(C)C2=O)c(=O)c2c(C)c(-n3nccn3)sc21)c1cc(F)ccc1O` .
## Output 6.00 to 7.00

## Input Provide pIC50, tested on Human ACC2 (Homo sapiens, UniProt O00763), for `COc1ccc(F)cc1[C@@H](O)Cn1c(=O)n([C@@H]2CCN(C)C2=O)c(=O)c2c(C)c(-n3nccn3)sc21` .
## Output 8.00 to 8.70

## Input Provide pIC50, tested on Human ACC2 (Homo sapiens, UniProt O00763), for `COCCO[C@@H](Cn1c(=O)n([C@@]2(C)CCCNC2=O)c(=O)c2c(C)c(-n3nccn3)sc21)c1cc(F)ccc1OC` .
## Output 7.00 to 8.00

## Input Provide pIC50, tested on Human ACC2 (Homo sapiens, UniProt O00763), for `COc1ccc(F)cc1[C@H](Cn1c(=O)n([C@@H]2CCN(C)C2=O)c(=O)c2c(C)c(-n3nccn3)sc21)OC1CCOCC1` .
## Output 8.00 to 8.70

----------
These compounds were tested on UniProtKB O00763; pIC50 is the recorded read-out.
pIC50: −log10 of the molar value.

{"columns": ["SMI", "pIC50"],
 "data": [
  ["COc1ccc(F)cc1[C@H](Cn1c(=O)n([C@@H]2CCN(C)C2=O)c(=O)c2c(C)c(-n3cccn3)sc21)OCCC(=O)O", "7.00 to 8.00"],
  ["COCCO[C@@H](Cn1c(=O)n([C@@]2(C)CCN(C)C2=O)c(=O)c2c(C)c(-n3nccn3)sc21)c1cc(F)ccc1OC", "< 6.00"],
  ["COc1ccc(F)cc1[C@H](Cn1c(=O)n([C@@H]2CCN(C)C2=O)c(=O)c2c(C)c(-c3ncco3)sc21)O[C@H]1CC[C@@H](O)CC1", "8.00 to 8.70"],
  ["COc1ccc(F)cc1[C@H](Cn1c(=O)n([C@@H]2CNC(=O)C2)c(=O)c2c(C)c(-n3nccn3)sc21)OCCO", "8.00 to 8.70"],
  ["COCCO[C@@H](Cn1c(=O)n([C@@H]2CCCN(C(C)C)C2=O)c(=O)c2c(C)c(-n3nccn3)sc21)c1cc(F)ccc1OC", "6.00 to 7.00"]
]}

For the next question, use this compound.
## Input Provide pIC50, tested on UniProtKB O00763, for `COc1ccc(F)cc1[C@H](Cn1c(=O)n([C@@]2(C)CC(=O)N(C)C2)c(=O)c2c(C)c(-n3nccn3)sc21)OCCO` .
## Output 7.00 to 8.00

----------
System: C. parapsilosis ATCC 22019
ASSAY OVERVIEW: Anti-Fungal Activity Assay (broth microtiter MIC), C. parapsilosis
Format: cell-based, Candida parapsilosis
MEASUREMENT SETUP: Lodderomyces parapsilosis, ATCC22019, 48 h, 3 replicates; MIC recorded at 48 h; read-out: MIC C. parapsilosis ATCC 22019
MIC values, listed per item

{"columns": ["COMPOUND", "MIC"],
 "data": [
  ["COc1ccc(F)cc1[C@H](Cn1c(=O)n([C@@H]2CCNC2=O)c(=O)c2c(C)c(-n3nccn3)sc21)O[C@H]1CC[C@@H](O)CC1 [Compound I-188]", "1.1 to 2 µg/mL"],
  ["COc1ccc(F)cc1[C@H](Cn1c(=O)n([C@H]2CCCN(C)C2=O)c(=O)c2c(C)c(-n3nccn3)sc21)OCCO [Compound I-72]", "2.1 to 4 µg/mL"],
  ["COc1ccc(F)cc1[C@H](Cn1c(=O)n([C@@H]2CCN(C)C2=O)c(=O)c2c(C)c(-n3nccn3)sc21)OC [Compound I-170]", "2.1 to 4 µg/mL"],
  ["COc1ccc(F)cc1[C@H](Cn1c(=O)n([C@H]2CNC(=O)C2)c(=O)c2c(C)c(-n3nccn3)sc21)OCCO [Compound I-89]", "2.1 to 4 µg/mL"],
  ["COCCO[C@@H](Cn1c(=O)n([C@H]2CCN(C)C2=O)c(=O)c2c(C)c(-n3nccn3)sc21)c1cc(F)ccc1O [Compound I-157]", "2.1 to 4 µg/mL"]
]}

## Input Name the recorded MIC of the compound listed here: COc1ccccc1[C@H](Cn1c(=O)n([C@H]2CCN(C)C2=O)c(=O)c2c(C)c(-n3nccn3)sc21)OC [Compound I-171]
## Output 2.1 to 4 µg/mL

## Input Name the recorded MIC of the compound listed here: COc1ccc(F)cc1[C@H](Cn1c(=O)n([C@@H]2CC(=O)N(C)C2)c(=O)c2c(C)c(-n3nccn3)sc21)OCCO [Compound I-93]
## Output 2.1 to 4 µg/mL

----------
These compounds were tested on UniProtKB Q00955; IC50 is the recorded read-out.

Worked examples, 2 compounds total:
{"columns": ["SMI", "RESULT VALUE"],
 "data": [
  ["COCCO[C@@H](Cn1c(=O)n([C@H]2CCCNC2=O)c(=O)c2c(C)c(-n3nccn3)sc21)c1cc(F)ccc1OC", "0.7 to 2 nM"],
  ["COc1ccc(F)cc1[C@H](Cn1c(=O)n([C@@H]2CCNC2=O)c(=O)c2c(C)c(-c3ncco3)sc21)OCCO", "2 to 10 nM"]
]}

For the next question, use this compound.
## Input Name the recorded IC50 of the compound listed here: `COc1ccc(F)cc1[C@H](Cn1c(=O)n([C@]2(C)CCC(=O)N(C)C2)c(=O)c2c(C)c(-n3nccn3)sc21)OCCO`
## Output 0.7 to 2 nM

----------
ASSAY SYSTEM: Fungal ACC2 (UniProt Q00955)
Sequence (Q00955 whole entry): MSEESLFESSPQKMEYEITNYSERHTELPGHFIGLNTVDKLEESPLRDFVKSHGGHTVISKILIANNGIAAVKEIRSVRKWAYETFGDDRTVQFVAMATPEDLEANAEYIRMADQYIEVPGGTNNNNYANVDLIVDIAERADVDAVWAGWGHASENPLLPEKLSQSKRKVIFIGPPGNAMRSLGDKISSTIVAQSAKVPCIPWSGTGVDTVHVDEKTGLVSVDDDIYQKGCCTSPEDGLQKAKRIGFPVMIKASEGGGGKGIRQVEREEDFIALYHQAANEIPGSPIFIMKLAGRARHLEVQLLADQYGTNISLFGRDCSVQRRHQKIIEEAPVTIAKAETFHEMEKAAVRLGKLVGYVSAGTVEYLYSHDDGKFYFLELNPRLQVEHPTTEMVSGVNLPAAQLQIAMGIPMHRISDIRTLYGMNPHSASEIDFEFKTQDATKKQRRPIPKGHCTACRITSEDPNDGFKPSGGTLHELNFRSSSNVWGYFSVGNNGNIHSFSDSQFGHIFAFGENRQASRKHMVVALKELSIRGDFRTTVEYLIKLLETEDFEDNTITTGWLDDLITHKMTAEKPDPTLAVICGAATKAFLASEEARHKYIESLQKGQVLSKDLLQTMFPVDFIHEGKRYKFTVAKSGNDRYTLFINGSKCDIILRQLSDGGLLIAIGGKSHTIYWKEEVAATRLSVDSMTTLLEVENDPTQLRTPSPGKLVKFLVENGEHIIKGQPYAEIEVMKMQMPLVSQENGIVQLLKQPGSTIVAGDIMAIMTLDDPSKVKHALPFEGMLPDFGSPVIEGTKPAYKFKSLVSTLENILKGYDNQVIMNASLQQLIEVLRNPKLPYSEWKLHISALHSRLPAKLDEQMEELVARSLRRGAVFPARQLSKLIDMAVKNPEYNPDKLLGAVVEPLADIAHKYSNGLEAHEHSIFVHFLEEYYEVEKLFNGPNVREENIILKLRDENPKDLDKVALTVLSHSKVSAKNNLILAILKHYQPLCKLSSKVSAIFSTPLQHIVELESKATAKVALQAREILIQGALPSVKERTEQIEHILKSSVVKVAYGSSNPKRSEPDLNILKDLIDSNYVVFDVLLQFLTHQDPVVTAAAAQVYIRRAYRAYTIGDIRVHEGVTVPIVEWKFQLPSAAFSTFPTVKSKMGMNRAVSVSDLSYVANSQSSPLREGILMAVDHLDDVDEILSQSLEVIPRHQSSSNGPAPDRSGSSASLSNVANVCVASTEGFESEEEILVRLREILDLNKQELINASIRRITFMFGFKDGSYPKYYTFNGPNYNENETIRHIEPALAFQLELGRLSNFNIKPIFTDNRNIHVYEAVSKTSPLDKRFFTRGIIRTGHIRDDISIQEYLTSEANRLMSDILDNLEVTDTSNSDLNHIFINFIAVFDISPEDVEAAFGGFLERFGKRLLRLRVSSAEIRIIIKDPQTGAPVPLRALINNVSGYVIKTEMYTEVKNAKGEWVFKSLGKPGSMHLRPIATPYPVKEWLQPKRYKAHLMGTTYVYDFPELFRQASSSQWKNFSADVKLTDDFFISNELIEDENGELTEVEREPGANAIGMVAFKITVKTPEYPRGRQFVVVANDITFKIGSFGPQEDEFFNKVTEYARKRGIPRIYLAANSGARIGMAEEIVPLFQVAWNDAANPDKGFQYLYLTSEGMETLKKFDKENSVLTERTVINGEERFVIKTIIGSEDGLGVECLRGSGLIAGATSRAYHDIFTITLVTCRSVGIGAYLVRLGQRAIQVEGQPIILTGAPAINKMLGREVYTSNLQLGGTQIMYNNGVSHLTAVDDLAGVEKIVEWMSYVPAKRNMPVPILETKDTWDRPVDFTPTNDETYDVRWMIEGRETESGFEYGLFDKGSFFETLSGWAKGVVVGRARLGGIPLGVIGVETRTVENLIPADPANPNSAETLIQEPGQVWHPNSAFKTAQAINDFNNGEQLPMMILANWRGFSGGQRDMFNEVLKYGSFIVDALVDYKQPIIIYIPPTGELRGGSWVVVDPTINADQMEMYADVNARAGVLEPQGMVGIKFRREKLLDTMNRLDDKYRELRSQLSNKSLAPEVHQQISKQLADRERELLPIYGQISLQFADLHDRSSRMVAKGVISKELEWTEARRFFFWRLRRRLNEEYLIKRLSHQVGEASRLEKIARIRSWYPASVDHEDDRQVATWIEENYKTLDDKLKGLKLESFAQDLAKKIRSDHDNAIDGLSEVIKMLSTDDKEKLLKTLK
MEASUREMENT SETUP: read-out: Fungal ACC2 (IC50, in vitro ACC2 inhibition)
OBSERVATION TYPE: IC50

Worked examples, 2 compounds total:
{"columns": ["COMPOUND", "IC50"],
 "data": [
  ["COCCO[C@@H](Cn1c(=O)n([C@H]2CCN(C)C2=O)c(=O)c2c(C)c(-n3nccn3)sc21)c1cc(F)ccc1O", "2 to 10 nM"],
  ["COc1ccc(F)cc1[C@H](COc1nc2sc(-n3nccn3)c(C)c2c(=O)n1C1CC(=O)N(C)C1)OCCO (stereo in doubt)", "10 to 100 nM"]
]}

For the next question, use this compound.
## Input Provide IC50, tested on Fungal ACC2 (UniProt Q00955), for `COCCO[C@@H](Cn1c(=O)n([C@@]2(C)CCN(C)C2=O)c(=O)c2c(C)c(-n3nccn3)sc21)c1cc(F)ccc1OC` .
## Output > 1000 nM
